# assay_comment: Food-effect and regimen pharmacokinetics, single 3-g daily ATQ dose (Example 5 Part 1)
# Type: in vivo, human
# conditions: male, human, plasma, oral, 3 g, 3-g BID, standard meal, baseline-adjusted, mean, N = 6

{"columns": ["smiles_data", "result_unit", "AUC(0-inf)"],
 "data": [
  ["CC1=C(C)C(=O)C(CC[C@](C)(O)CCC[C@H](C)CCC[C@H](C)CCCC(C)C)=C(C)C1=O", "µg·h/mL", 157]
]}

----------
# assay_comment: Multiple ascending dose pharmacokinetics of ATQ (Example 5 Part 2)
# Assay type: in vivo, human
# conditions: both sexes, human, plasma, oral, 0.5 g, 1-g/day (0.5 g BID), Day 14, N = 5; read-out: Cmax last dose

{"columns": ["molecule", "result_unit", "Cmax"],
 "data": [
  ["CC1=C(C)C(=O)C(CC[C@](C)(O)CCC[C@H](C)CCC[C@H](C)CCCC(C)C)=C(C)C1=O [ATQ, alpha-tocopherolquinone]", "ng/mL", 1890]
]}

----------
# assay_comment: Multiple ascending dose pharmacokinetics of ATQ (Example 5 Part 2)
# Type: in vivo, human
# conditions: both sexes, human, plasma, oral, 2 g/day, 2-g/day (0.67 g TID), mean, N = 7; read-out: AUC(0-tau, 24)
property_name: AUC (µg·h/mL)

{"columns": ["smiles_data", "test_value"],
 "data": [
  ["CC1=C(C)C(=O)C(CC[C@](C)(O)CCC[C@H](C)CCC[C@H](C)CCCC(C)C)=C(C)C1=O", 108]
]}

----------
# assay_comment: Food-effect and regimen pharmacokinetics, single 3-g daily ATQ dose (Example 5 Part 1)
# Format: in vivo, human
# conditions: male, human, plasma, oral, 3 g, single 3-g daily dose, across treatments; read-out: mean Cmax range

{"columns": ["compound", "Cmax"],
 "data": [
  ["CC1=C(C)C(=O)C(CC[C@](C)(O)CCC[C@H](C)CCC[C@H](C)CCCC(C)C)=C(C)C1=O [ATQ, alpha-tocopherolquinone]", "13400 to 15300 ng/mL"]
]}

----------
# assay_comment: Food-effect and regimen pharmacokinetics, single 3-g daily ATQ dose (Example 5 Part 1)
# Format: in vivo, human
# conditions: male, human, plasma, oral, 3 g, 3-g TID, high-fat meal, mean, N = 5; read-out: t1/2 (converted)
property_name: half-life (min)

{"columns": ["smiles_data", "result_unit", "test_value"],
 "data": [
  ["CC1=C(C)C(=O)C(CC[C@](C)(O)CCC[C@H](C)CCC[C@H](C)CCCC(C)C)=C(C)C1=O", "min", 293]
]}

----------
# assay_comment: Food-effect and regimen pharmacokinetics, single 3-g daily ATQ dose (Example 5 Part 1)
# Assay type: in vivo, human
# conditions: male, human, plasma, oral, 3 g, 3-g TID, high-fat meal, mean, N = 5; read-out: Vz/F

{"columns": ["smiles_data", "Vd/F"],
 "data": [
  ["CC1=C(C)C(=O)C(CC[C@](C)(O)CCC[C@H](C)CCC[C@H](C)CCCC(C)C)=C(C)C1=O", "122 L"]
]}

----------
# assay_comment: Food-effect and regimen pharmacokinetics, single 3-g daily ATQ dose (Example 5 Part 1)
# Type: in vivo, human
# conditions: male, human, plasma, oral, 3 g, 3-g BID, high-fat meal, mean, N = 6; read-out: Vz/F
property_name: Vd/F (L)

{"columns": ["molecule", "test_value"],
 "data": [
  ["CC1=C(C)C(=O)C(CC[C@](C)(O)CCC[C@H](C)CCC[C@H](C)CCCC(C)C)=C(C)C1=O [ATQ, alpha-tocopherolquinone]", 132]
]}

----------
# assay_comment: Food-effect and regimen pharmacokinetics, single 3-g daily ATQ dose (Example 5 Part 1)
# Type: in vivo, human
# conditions: male, human, plasma, oral, 3 g, 3-g BID, high-fat meal, baseline-adjusted, mean, N = 6
property_name: AUC(0-inf) (µg·h/mL)

{"columns": ["smiles_data", "result_unit", "test_value"],
 "data": [
  ["CC1=C(C)C(=O)C(CC[C@](C)(O)CCC[C@H](C)CCC[C@H](C)CCCC(C)C)=C(C)C1=O", "µg·h/mL", 152]
]}

----------
# assay_comment: Multiple ascending dose pharmacokinetics of ATQ (Example 5 Part 2)
# Format: in vivo, human
# conditions: both sexes, human, plasma, oral, 0.75 g, 1.5-g/day (0.75 g BID), Day 14 morning dose, N = 6; read-out: Cmax

{"columns": ["smiles_data", "Cmax, ng/mL"],
 "data": [
  ["CC1=C(C)C(=O)C(CC[C@](C)(O)CCC[C@H](C)CCC[C@H](C)CCCC(C)C)=C(C)C1=O", 2540]
]}

----------
# assay_comment: Food-effect and regimen pharmacokinetics, single 3-g daily ATQ dose (Example 5 Part 1)
# Type: in vivo, human
# conditions: male, human, plasma, oral, 3 g, 3-g TID, standard meal, median, N = 6; read-out: Tmax

{"columns": ["smiles_data", "result_unit", "Tmax"],
 "data": [
  ["CC1=C(C)C(=O)C(CC[C@](C)(O)CCC[C@H](C)CCC[C@H](C)CCCC(C)C)=C(C)C1=O", "h", 12.7]
]}

----------
# assay_comment: Food-effect and regimen pharmacokinetics, single 3-g daily ATQ dose (Example 5 Part 1)
# Format: in vivo, human
# conditions: male, human, plasma, oral, 3 g, 3-g BID (2×1.5 g 12 h apart), standard meal, baseline-adjusted, mean, N = 6; read-out: Cmax
property_name: Cmax (ng/mL)

{"columns": ["compound", "test_value"],
 "data": [
  ["CC1=C(C)C(=O)C(CC[C@](C)(O)CCC[C@H](C)CCC[C@H](C)CCCC(C)C)=C(C)C1=O [ATQ, alpha-tocopherolquinone]", 15300]
]}

----------
# assay_comment: Multiple ascending dose pharmacokinetics of ATQ (Example 5 Part 2)
# Assay type: in vivo, human
# conditions: both sexes, human, plasma, oral, 0.33 g, 1-g/day (0.33 g TID), highest Cmax of the 3 serial TID profiles, Day 6 lunch, N = 8; read-out: Cmax

{"columns": ["compound", "Cmax (ng/mL)"],
 "data": [
  ["CC1=C(C)C(=O)C(CC[C@](C)(O)CCC[C@H](C)CCC[C@H](C)CCCC(C)C)=C(C)C1=O [ATQ, alpha-tocopherolquinone]", 3530]
]}

----------
# assay_comment: Multiple ascending dose pharmacokinetics of ATQ (Example 5 Part 2)
# Type: in vivo, human
# conditions: both sexes, human, plasma, oral, 0.67 g, 2-g/day (0.67 g TID), highest Cmax of the 3 serial TID profiles, Day 6 dinner, N = 7; read-out: Cmax
property_name: Cmax (ng/mL)

{"columns": ["smiles_data", "result_unit", "test_value"],
 "data": [
  ["CC1=C(C)C(=O)C(CC[C@](C)(O)CCC[C@H](C)CCC[C@H](C)CCCC(C)C)=C(C)C1=O", "ng/mL", 9000]
]}

----------
# assay_comment: Food-effect and regimen pharmacokinetics, single 3-g daily ATQ dose (Example 5 Part 1)
# Assay type: in vivo, human
# conditions: male, human, plasma, oral, 3 g, 3-g TID (3×1.0 g 6 h apart), standard meal, baseline-adjusted, mean, N = 6; read-out: Cmax
# Procedure: The study was conducted in 2 parts. Part 1 was conducted in healthy male subjects only while Part 2 was conducted in healthy male and female subjects. The intent of this study part was to optimize the dosage regimen and diet for the multiple-dose safety and tolerance Part 2 of the study. All plasma ATQ concentrations were determined using a GLP validated bioanalytical method. ATQ was administered as an oral solution in oil (0.49 g/mL). The placebo solution consisted of olive oil alone. […]

{"columns": ["molecule", "Cmax, ng/mL"],
 "data": [
  ["CC1=C(C)C(=O)C(CC[C@](C)(O)CCC[C@H](C)CCC[C@H](C)CCCC(C)C)=C(C)C1=O [ATQ, alpha-tocopherolquinone]", 15000]
]}

----------
# assay_comment: Food-effect and regimen pharmacokinetics, single 3-g daily ATQ dose (Example 5 Part 1)
# Type: in vivo, human
# conditions: male, human, plasma, oral, 3 g, 3-g BID, high-fat meal, mean, N = 6; read-out: t1/2 (converted)
property_name: half-life (h)

{"columns": ["compound", "result_unit", "test_value"],
 "data": [
  ["CC1=C(C)C(=O)C(CC[C@](C)(O)CCC[C@H](C)CCC[C@H](C)CCCC(C)C)=C(C)C1=O [ATQ, alpha-tocopherolquinone]", "h", 4.2]
]}
